target: SARS-CoV-2 spike protein on live virus, strain USA-WA1/2020 (SARS-CoV-2, WA01/2020 strain, UniProt P0DTC2 14-1273); test: cell-based or functional assay
quantityKind: Live Neut, WA1/2020 IC50 (pM)
The reply should be a number in pM, with the unit left off.

[[record]]
binder = "antibody 2020 (antibody, V domains shown) VH: QVQLVQSGAEVKKPGASVKVSCKASGYTFTDYFMHWVRQAPGQGLEWMGWVNPLSGGTNFAQKFQGRVTMTSDTSITTVYMELSRLRSDDTAVYYCARDPPLYSSTYGMDVWGQGTTVTVSS VL: QSALTQPASVSGSPGQSITISCTGTSSDVGAYNYVSWYQQHPGKAPKLMIYDVSDRPSGVSNRFSGSKSGNTASLTISGLQAEDEADYYCSSYTISSSVVFGGGTKLTVL"
recordedvalue = 14


Let's switch to this binder now.
(Q) Query Live Neut, WA1/2020 IC50 (pM) for antibody 2019 (antibody, V domains shown) VH: QVQLVESGGGVVQPGGSLSLSCAASGLSFSSYGMHWVRQAPGKGLEWVAFIRYDVSNKYYADSVKGRFTISRDNSKNTLYLQMNSLRVEDTAVYYCATWAPLDDGMDVWGQGTTVTVSS VL: SYELTQPPSVSVSPGQTARITCSGDALPKQYAYWYQQKPGQAPVLVIYKDTERPSGIPERFSGSSSGTTVTLTISGVQAEDEADYYCQSGDSSGTFYVVFGGGTKLTVL
(A) 107

Sourced from patent US20230382979A1
